This collection of values is drawn from patent US5132323A.

Test: LD50 of DACH-Pt(II) compounds, intraperitoneal
Assay type: in vivo
Details: i.p., CD1 albino mice
Property Measured: LD50
Give the value; after it, write the unit.

Name the recorded LD50 for N.N.O=C([O-])C1(C(=O)[O-])CCC1.[Pt+2] [Carboplatin, reference compound] .
105 mg/kg

For N[C@H]1CCCC[C@@H]1N.O.O.O=C([O-])C1(C(=O)[O-])CCC1.[Pt+2] (stereo in doubt) [Compound 12] then?
230 mg/kg

// repeat for CCN(CC(=O)[O-])CC(=O)[O-].N[C@@H]1CCCC[C@H]1N.O.[Pt+2] (stereo in doubt) [Compound 1] and report
58 mg/kg

What about this compound? CCN1CC(=O)[O][Pt]2([NH]C3CCCCC3[NH]2)[O]C(=O)C1 (centres unmarked) [S,S-EIDA]
95 mg/kg

Same again, this time with CCN1CC(=O)[O][Pt]2([NH]C3CCCCC3[NH]2)[O]C(=O)C1 (stereo not drawn) [Cis-EIDA]
140 mg/kg

====

Kindly supply the reported % T/C values for the records listed here.
Tested on: L1210
Assay: In vivo antitumor therapy against L1210
Set-up: species or system BDF1 mice
Settings: optimal dose 50 mg/kg i.p., day 1
Entry rule: numbers only, all in %.

Write down the reported % T/C of CCCCCN(CC(=O)[O-])CC(=O)[O-].N[C@@H]1CCCC[C@H]1N.O.[Pt+2] [Compound 4] , test system: L1210.
158

Repeat with N[C@@H]1CCCC[C@H]1N.O.O.O=C([O-])CN(O)CC(=O)[O-].[Pt+2] (stereo in doubt) [Compound 9]
156

Can you handle CC(C)CCN(CC(=O)[O-])CC(=O)[O-].N[C@@H]1CCCC[C@H]1N.[Pt+2] [Compound 6] next?
145

Moving on to CCN(CC(=O)[O-])CC(=O)[O-].N[C@@H]1CCCC[C@H]1N.O.[Pt+2] (stereo in doubt) [Compound 1]
125

====

Assay: In vivo renal and hematological toxicity of DACH-Pt(II) compounds
Set-up: species or system CD1 albino mice
Conditions: single i.p. LD50 dose
Assignment: determine reported Survivors on d.5 for the given compounds.

// Survivors on d.5 lookup, key: CCN1CC(=O)[O][Pt]2([NH]C3CCCCC3[NH]2)[O]C(=O)C1 (centres unmarked) [S,S-EIDA]
5/5

Another compound: CCN(CC(=O)[O-])CC(=O)[O-].N[C@@H]1CCCC[C@H]1N.O.[Pt+2] (stereo in doubt)
5/5

Try N.N.O=C([O-])C1(C(=O)[O-])CCC1.[Pt+2] [Carboplatin, reference compound] next.
5/5

Also CCN1CC(=O)[O][Pt]2([NH]C3CCCCC3[NH]2)[O]C(=O)C1 (stereo not drawn) [Cis-EIDA] ?
3/5

Okay, and N[C@H]1CCCC[C@@H]1N.O.O.O=C([O-])C1(C(=O)[O-])CCC1.[Pt+2] (stereo in doubt) ?
3/5

====

Test: In vivo renal and hematological toxicity of DACH-Pt(II) compounds
Design: species or system CD1 albino mice
Conditions: single i.p. LD50 dose, day 5
Property Measured: Body Weight d.5 (% of day 0)

Recorded Body Weight d.5 (% of day 0) of CCN1CC(=O)[O][Pt]2([NH]C3CCCCC3[NH]2)[O]C(=O)C1 (stereo not drawn) [Cis-EIDA] , please.
77 % of day 0

Consider next the compound N.N.O=C([O-])C1(C(=O)[O-])CCC1.[Pt+2] [Carboplatin, reference compound] in the same way.
95 % of day 0

Check N[C@H]1CCCC[C@@H]1N.O.O.O=C([O-])C1(C(=O)[O-])CCC1.[Pt+2] (stereo in doubt) too.
114 % of day 0

Same for CCN(CC(=O)[O-])CC(=O)[O-].N[C@@H]1CCCC[C@H]1N.O.[Pt+2] (stereo in doubt)
105 % of day 0

Also check CCN1CC(=O)[O][Pt]2([NH]C3CCCCC3[NH]2)[O]C(=O)C1 (centres unmarked) [S,S-EIDA]
100 % of day 0

====

Assay: In vivo renal and hematological toxicity of DACH-Pt(II) compounds
Set-up: species or system CD1 albino mice; unit not given here
Settings: single i.p. LD50 dose, day 5; mean ± S.D.
Protocol: CD1 albino mice were administered a single intraperitoneal injection of the LD50 dose of each compound using 5 mice in each group. Five days later each mouse was bled under anesthesia from the axillary vessel. Blood urea nitrogen (BUN) and leucopenia were assessed for each sample. ^a CD1 Albino mice were administered a single i.p. injection of the LD50 dose of each compound (5 mice/cmpd) and bled under anesthesia from the axillary vessel 5 days later for blood urea nitrogen […]
Property Measured: WBC d.5
Just the number.

Need WBC d.5, item N[C@H]1CCCC[C@@H]1N.O.O.O=C([O-])C1(C(=O)[O-])CCC1.[Pt+2] (stereo in doubt)
3.42

Let us now turn to CCN(CC(=O)[O-])CC(=O)[O-].N[C@@H]1CCCC[C@H]1N.O.[Pt+2] (stereo in doubt)
2.3

Let us now turn to CCN1CC(=O)[O][Pt]2([NH]C3CCCCC3[NH]2)[O]C(=O)C1 (stereo not drawn) [Cis-EIDA]
3.25

Same question for CCN1CC(=O)[O][Pt]2([NH]C3CCCCC3[NH]2)[O]C(=O)C1 (stereo not shown) [S,S-EIDA] please.
2.63
